# TEST PROTOCOL: Antioxidant activity assessed as galvinoxyl radical scavenging activity at 15 uM
# Assay type: functional
EXPERIMENTAL READOUT: K (M⁻¹ s⁻¹)

1) O=c1oc2ccccc2cc1C1=NN(c2ccccc2)C(c2ccc(O)c(O)c2)C1 (stereo unspecified); 6920
2) O=c1oc2ccccc2cc1C1=NN(c2ccccc2)C(c2ccc(O)cc2O)C1 (stereo unspecified); 7900
3) O=c1oc2ccccc2cc1C1=NN(c2ccccc2)C(c2ccccc2O)C1 (stereo unspecified); 4350
4) COc1cc(C2CC(c3cc4ccccc4oc3=O)=NN2c2ccccc2)ccc1O (stereo unspecified); 6740
5) O=c1oc2ccccc2cc1C1=NN(c2ccccc2)C(c2cccc(O)c2)C1 (stereo unspecified); 7230
6) O=c1oc2ccccc2cc1C1=NN(c2ccccc2)C(c2ccc(O)cc2)C1 (stereo unspecified); 5820
